System: D423 (ENO1–/–) glioma cells
Test: In vitro cytotoxicity of prodrugs, three-cell line assay
Conditions: Glioma cell, 144 h, read-out: IC50 D423 (ENO1–/–), 6 day treatment
Measured IC50 accompanies every entry in the list below.

[[record]]
compound = "CC(C)OC(=O)[C@H](C)NP(=O)(OCOC(=O)C(C)(C)C)C1CCCN(O)C1=O (stereo partly drawn) [20o]"
experimental_system = "D423 (ENO1–/–) glioma cells"
readout_value = "202 nM"


IC50 for O=C1C(P(=O)(NCc2ccccc2)Oc2ccc(F)cc2)CCCN1O (stereo not drawn) [compound 26] is > 100000 nM

IC50 for CC(C)(C)C(=O)OCOP(=O)(NCc1ccccc1)C1CCCN(O)C1=O (stereo not drawn) [20b] is 243 nM

Data credit: paper PMC9620261
